# test: Induction of membrane damage in DOPC/DOPG large unilamellar vesicles model after 1 hr by leakage fluorescence assay
# Type: physicochemical
# study-conditions: read-out: ED50 (the source's name)
reported-metric: pEC50
pEC50 field: float, defined as -log10 of concentration (mol/L).

Determine from records and report pEC50 for H-TIAMRAINNYRWRSKNQNTFLR-OH 5.90

Determine from records and report pEC50 for H-AQWFAIQHISLNPPRSTIAMRAINNYRWR-OH 6.13

Determine from records and report pEC50 for H-AQWFAIQHISLNPPRSTIAMRAINNYRWRSKNQNTFLR-OH 6.40

Determine from records and report pEC50 for H-ISLNPPRSTIAMRAINNYRWRSKNQNTFLR-OH 6.12

* * *

Kindly supply the reported MIC values for the records listed here.
# Tested on: Micrococcus luteus
# test: Bactericidal activity against Micrococcus luteus ATCC 7468 after over night incubation
# Type: functional
# study-conditions: read-out: MIC100
Entry rule: numbers only, all in µM.

Output reported MIC of the substance H-ISLNPPRSTIAMRAINNYRWRSKNQNTFLR-OH on Micrococcus luteus. 3.5

Output reported MIC of the substance H-AQWFAIQHISLNPPRSTIAMRAINNYRWR-OH on Micrococcus luteus. 3.5

Output reported MIC of the substance H-TIAMRAINNYRWRSKNQNTFLR-OH on Micrococcus luteus. 7

Output reported MIC of the substance H-AQWFAIQHISLNPPRSTIAMRAINNYRWRSKNQNTFLR-OH on Micrococcus luteus. 1.5

* * *

# System: Lipopolysaccharide (LPS)
# test: Displacement of BODIPY TR cadaverine from Escherichia coli serotype 0111:B4 lipopolysaccharide by fluorescent displacement assay
reported-metric: ED50
I'd appreciate it if you wrote the number followed by its unit.

Determine from records and report ED50 for H-TIAMRAINNYRWRSKNQNTFLR-OH 1520 nM

Determine from records and report ED50 for H-AQWFAIQHISLNPPRSTIAMRAINNYRWRSKNQNTFLR-OH 1580 nM

Determine from records and report ED50 for H-AQWFAIQHISLNPPRSTIAMRAINNYRWR-OH 2430 nM

Determine from records and report ED50 for H-ISLNPPRSTIAMRAINNYRWRSKNQNTFLR-OH 6130 nM

* * *

# test: Toxicity in human RBC assessed as hemolytic activity after 4 hrs
# Format: cell-based, Erythrocyte
# study-conditions: human red blood cells (RBC)
Where a SMILES comes first, the peptide text is derived from it. [ ]: non-standard residue; d: D form. Ahx = NCCCCCC(=O)O
reported-metric: HC50 at 4 h (µM)
Entry rule: numbers only, all in µM.

Determine from records and report HC50 at 4 h for CC[C@H](C)[C@H](NC(=O)[C@H](C)NC(=O)[C@H](CCCNC(=N)N)NC(=O)[C@H](CCSC)NC(=O)[C@H](C)NC(=O)[C@@H](NC(=O)[C@@H](NC(=O)[C@H](CO)NC(=O)CCCCCNC(=O)[C@H](Cc1cnc[nH]1)NC(=O)[C@H](CCC(N)=O)NC(=O)[C@@H](NC(=O)[C@H](C)NC(=O)[C@H](Cc1ccccc1)NC(=O)[C@H](Cc1c[nH]c2ccccc12)NC(=O)[C@H](CCC(N)=O)NC(=O)[C@H](C)N)[C@@H](C)CC)[C@@H](C)O)[C@@H](C)CC)C(=O)N[C@@H](CC(N)=O)C(=O)O (H-AQWFAIQH[Ahx]STIAMRAIN-OH) 15.2
